Consider the following compounds and their measured IC50 readings.
Target: thrombin (Bos taurus)
Construct: purchased Lubelska Wytwórnia Szczepionek (Lublin, Poland)
Test: Amidolytic activity of thrombin (substrate S-2238)
Assay type: biochemical
Settings: amidolytic activity, S-2238, tris buffer pH 8.4
Non-standard residues stand in square brackets, D forms with d. Residues, ends and D or L forms follow the SMILES beside them. Ahx = NCCCCCC(=O)O
endpointName: IC50

compound | endpointName | measValue
C[C@H](N)C(=O)N[C@@H](Cc1ccccc1)C(=O)NCCCCCC(N)=O [Compound 10, H–Ala–Phe–EACA–NH2] (H-Ala-Phe-[Ahx]-NH2) | IC50 | > 20 mM
C[C@@H](N)C(=O)N[C@@H](Cc1ccccc1)C(=O)NCCCCCC(=O)O [Compound 4, H–D-Ala–Phe–EACA–OH] (H-[dA]-Phe-[Ahx]-OH) | IC50 | > 20 mM
C[C@H](N)C(=O)N[C@@H](Cc1ccccc1)C(=O)NCCCCCC(=O)O [Compound 5, H–Ala–Phe–EACA–OH] (H-Ala-Phe-[Ahx]-OH) | IC50 | 4.77 mM

* * *

Consider the following compounds and their measured IC50 readings.
Target: uPA (Homo sapiens, UniProt P00749)
Construct: purchased Sigma (Schnelldorf, Germany)
Experiment: Amidolytic activity of urokinase (substrate S-2444)
Type: biochemical
Conditions: amidolytic activity, S-2444, tris buffer pH 8.8
Non-standard residues stand in square brackets, D forms with d. Residues, ends and D or L forms follow the SMILES beside them. Ahx = NCCCCCC(=O)O
endpointName: IC50 (mM)

compound | valueModifier | measValue
C[C@@H](N)C(=O)N[C@@H](Cc1ccccc1)C(=O)N[C@@H](CCCCN)C(=O)NCCCCCC(N)=O [Compound 7, H–D-Ala–Phe–Lys–EACA–NH2] (H-[dA]FK[Ahx]-NH2) | > | 20
C[C@@H](N)C(=O)N[C@@H](Cc1ccccc1)C(=O)N[C@@H](CCCCN)C(=O)NCCCCCC(=O)NCCCCCN | > | 20
C[C@H](N)C(=O)N[C@@H](Cc1ccccc1)C(=O)N[C@@H](CCCCN)C(=O)NCCCCCC(=O)O [Compound 3, H–Ala–Phe–Lys–EACA–OH] (H-AFK[Ahx]-OH) | > | 20
C[C@@H](N)C(=O)N[C@@H](Cc1ccccc1)C(=O)NCCCCCC(=O)O [Compound 4, H–D-Ala–Phe–EACA–OH] (H-[dA]-Phe-[Ahx]-OH) | = | 3.17
C[C@H](N)C(=O)N[C@@H](Cc1ccccc1)C(=O)NCCCCCC(N)=O [Compound 10, H–Ala–Phe–EACA–NH2] (H-Ala-Phe-[Ahx]-NH2) | = | 2.61

Cited source: paper PMC5401710
